Tested on: SK-MEL-28 melanoma
Assay: NCI-60 one-dose screen, 48 h
Details: 10 µM
This is part of a sample that, as a whole, favours compounds with a hit. Of some 83,000 tested, about 20% had one in any assay. Activity calls are given as the source filed them. Rule for the calls: active = growth percent below 10; inactive = the rest.
Outcomes: label 1 (active), label 0 (inactive)

* O=C(CSc1ccc(-c2ccc(Cl)cc2)nn1)Nc1ccc(Cl)c(C(F)(F)F)c1 | label 0
* COc1ccc2c3nc4cc(C)c(C)cc4nc3n(CCN(C)C)c2c1 | label 1
* O=C(Nc1nc2ccc([N+](=O)[O-])cc2s1)Nc1ccccc1I | label 0
* O=C(N=Nc1c(O)[nH]c2ccc(Br)cc12)c1ccc2nc(-c3ccccc3)[nH]c2c1 | label 1
* CN1C(=O)N(C)C2SC(N/N=C/c3cccs3)=NC21 (stereo not given) | label 0
* COc1cc(OC(F)(F)F)ccc1C(=O)Nc1sc2c(c1C#N)CCC(=O)C2 | label 0
* COc1cccc(-c2nn(-c3ccccc3)cc2-c2ccnc(NCCCNC(=O)Nc3ccc(F)cc3)c2)c1 | label 1
* CN1CCN(c2ccc(Nc3nc(NCCCNC(=O)C4CCCCC4)c4sccc4n3)cc2)CC1 | label 1
* COc1ccc2c(c1)N=C(C(=O)O)/C2=C/c1sc(Nc2ccc(O)cc2)nc1O | label 0
* CN1C(=O)/C(=C/c2ccc3ncsc3c2)NC1=NC12CC3CC(CC(O)(C3)C1)C2 | label 1
* Clc1cccc(N/N=C/c2c[nH]c3ccccc23)n1 | label 0
* CCCCCc1ccc(S(=O)(=O)Nc2cc(-c3csc(N(C)C(C)=O)n3)ccc2N2CCN(C)CC2)cc1 | label 0
* C#Cc1ccc(S(=O)(=O)Nc2cccc(-c3csc(NC(C)=O)n3)c2)cc1 | label 0
* CCOC(=O)C1=C(N)N(c2ccccc2)C2=C(C(=O)CC(C)(C)C2)C1c1ccc(Cl)cc1 (stereo not given) | label 0
* COc1ccccc1[C@H]1C(C(=O)c2ccc(O)cc2)C2(N[C@@H]1c1ccccc1)C(=O)Nc1ccc(Br)cc12 (stereo not given in full) | label 0
* COc1ccccc1C(=O)NNC(=O)CSc1nc2c(c(=O)[nH]1)CCCC2 | label 0
* COc1cc(NC(=O)c2cc(-c3ccc(F)cc3F)ccc2O)cc(OC)c1OC | label 0
* O=C(CNc1nc(-c2ccccc2)cs1)Nc1ccc(Br)cc1 | label 1
* CN1CCN(c2ccc(Nc3nc(NCCCNC(=O)c4ccc(F)cc4)c4sccc4n3)cc2)CC1 | label 1
* CC1=C2C(=C[C@@](C)(CO)[C@@H]2O)/C(=N\N)[C@](C)(O)C12CC2 | label 1

----------
Test system: BT-549 breast
Test: NCI-60 one-dose screen, 48 h (100 = growth as untreated, 0 = no growth, -100 = all killed)
Details: 10 µM
The panel holds about 83,000 compounds, 20% with a hit somewhere; the sample as a whole holds those more often.
Lab note: class by growth, see bottom end = under 20%, midrange = from 20% up to 50%, top end = 50% and over

* Cc1ccc(-c2nc(Nc3ccc(C)c(S(N)(=O)=O)c3)c3ccccc3n2)cc1 | top end
* O=C1CCC(N2Cc3c(NCc4ccc(-c5ccccc5)cc4)cccc3C2=O)C(=O)N1 (configuration not stated) | midrange
* Cc1nn(-c2ccccc2)c2ncn(CC(=O)N/N=C/c3c[nH]c4ccccc34)c(=O)c12 | top end
* COc1ccc(NC(=O)Cn2c(/C=C/c3ccc(N(C)C)cc3)nc3ccccc3c2=O)cc1 | bottom end
* N#Cc1ccc(-c2nn(-c3ccc(C(=O)O)cc3)cc2CNc2cc(Cl)cc(C(F)(F)F)c2)cc1 | bottom end
* OCCNc1oc(-c2ccccc2)nc1[P+](c1ccccc1)(c1ccccc1)c1ccccc1 | bottom end
* COc1ccc(NC(=O)CSc2nnc(-c3ccc4nc(-c5ccc(Cl)cc5)[nH]c4c3)o2)cc1 | midrange
* COc1ccccc1NCc1ccc(CO)n1-c1ccc(C)cc1 | top end
* Cc1ccc2nc(COc3ccc(C(=O)NNC(=S)NCCc4ccccc4)cc3)[nH]c2c1 | top end
* NC1=NC(c2ccccc2Cl)N=C(Nc2nn[nH]n2)N1 (configuration not stated) | top end
* C=C1CCC2C3(C)COC(c4cc(F)cc(F)c4)OC3CCC2(C)C1C/C=C1/C(=O)OCC1O (configuration not stated) | bottom end
* O=C(Nc1ccc(OCC(=O)c2ccccc2)cc1)Nc1ccc(Cl)c(C(F)(F)F)c1 | midrange
* CN(C)c1ccc(/C=C/c2nc3ccccc3c(=O)n2CC(=O)Nc2ccccc2)cc1 | bottom end
* Cc1cc(C)nc(NS(=O)(=O)c2ccc(N/C(N)=N/c3nccc(-c4cccs4)n3)cc2)n1 | top end
* CCCCSc1nc(Nc2ccc(/C(C)=N/NC(N)=S)cc2)c(C#N)c(-c2ccc(OC)cc2)n1 | midrange
* COc1cnc2c(c1)C(=O)c1c-2n(CCCNC(C)C)c(=O)c2cc(OC)c(OC)cc12 | top end
* O=C(Nc1nc2ccc([N+](=O)[O-])cc2s1)Nc1ccccc1I | bottom end
* O=C(NO)c1ccc(CN2CCN(c3nc(-c4ccccc4)c4ccccc4n3)CC2)cc1 | midrange
* O=C1N/C(=N\c2nccs2)S/C1=C\c1cccs1 | midrange
* Cc1ccc(/C(N)=N/c2sc(-c3ccccc3)nc2-c2ccccc2)cc1 | top end
* O=C1Nc2ccc(Cl)cc2/C1=C/c1cccc(OCc2ccccc2)c1 | midrange
* CCCCCCCCCCCCCCCCCCCC(=O)NCCc1c[nH]c2ccc(OC(=O)CCCC(=O)OCCOOCCOOCCOOCCOOCCOOCCOOCCOOCCOOCCOOCCOOCCOOCCOC)cc12 | bottom end
* O=C(O)CCCCCCCCCCN1C(=O)/C(=C/c2cnc(-c3ccc(Cl)cc3)s2)SC1=S | bottom end
* COc1cc2c3c(n(CCCn4ccnc4)c(=O)c2cc1OC)-c1nc2c(cc1C3=O)OCO2 | midrange
* COc1ccccc1[C@H]1C(C(=O)c2ccc(Cl)cc2)C2(N[C@@H]1c1ccccc1)C(=O)Nc1ccc(Cl)cc12 (some centres not stated) | bottom end
* Nc1nc(-c2ccccc2)cs1 | midrange
* CCOC(=O)C1=C(N)N(c2ccc(Cl)cc2)C2=C(C(=O)CC(C)(C)C2)C1c1ccc(N2CCOCC2)cc1 (configuration not stated) | midrange
* NS(=O)(=O)c1ccc(N=Nc2c(O)n(CC(=O)Nc3ccccc3Br)c3ccccc23)cc1 | bottom end
* Cc1ccc(-c2ccc(SCC(=O)Nc3ccc(Cl)c(C(F)(F)F)c3)nn2)cc1 | midrange
* COc1cc(/C=C/C(=O)c2ccc(NC(=O)CN3C(=O)NC(C)(c4ccccc4)C3=O)cc2)cc(OC)c1OC (configuration not stated) | bottom end
* COc1cc2c(cc1OC)CN(CCCCOc1cc(O)c3c(=O)cc(-c4ccccc4)oc3c1)CC2 | top end
* Nc1nnc(-c2c[nH]c3ccc(F)cc23)c(-c2c[nH]c3ncccc23)n1 | midrange
* CC[C@]12C=CCN3CC[C@@]4(c5cc(C#CCNc6ccc(C)c(Nc7nccc(-c8cccnc8)n7)c6)c(OC)cc5N(C)[C@H]4[C@@](O)(C(=O)OC)[C@@H]1OC(C)=O)C32 (some centres not stated) | bottom end
* Cc1cccc2cc(-c3cc(-c4ccccc4)nc(=S)[nH]3)c(Cl)nc12 | top end
* COc1cccc2nc(Nc3ccc(F)c(NC(=O)c4ccc(CN5CCN(C)CC5)c(C(F)(F)F)c4)c3)ccc12 | top end
* O=C(N/N=C/c1ccc(B(O)O)o1)c1[nH]c2ccc(Br)cc2c1-c1ccccc1 | midrange

----------
Each entry below lists one item and its recorded growth value.
Tested on: CAKI-1 renal
Experiment: NCI-60 one-dose screen, 48 h (100 = growth as untreated, 0 = no growth, -100 = all killed)
Details: 10 µM
The panel holds about 83,000 compounds, 20% with a hit somewhere; the sample as a whole holds those more often.
Experimental endpoint: growth (%)

* Cc1ccc([N+](=O)[O-])c(C(=O)Nc2ccc(-c3ccc4c(c3)NC(=O)/C4=C\c3ccc[nH]3)cc2)c1 | 69.4
* COc1ccc(OC)c(/C=N/NC(=O)c2ccc3nc(-c4ccc(Cl)cc4)[nH]c3c2)c1 | 61.6
* Cc1ccc(C(=O)CSc2nnc(-c3c[nH]c4ccccc34)n2-c2ccccc2)cc1 | 12.4
* COc1cc(C2CC(c3ccc(C)cc3)=Nc3c(N)nc(N)nc3N2)ccc1Oc1nc(Nc2ccc(F)cc2)nc(N(C)C)n1 (centres undefined) | 49.4

----------
System: K-562 leukemia
Assay: NCI-60 one-dose screen, 48 h (100 = growth as untreated, 0 = no growth, -100 = all killed)
Conditions: 10 µM
This is part of a sample that, as a whole, favours compounds with a hit. Of some 83,000 tested, about 20% had one in any assay.
Rule: Met for growth not less than 40%, Not met for anything less.

• CN1CCO/C1=C(/NC(=O)c1ccc(Cl)cc1)[P+](c1ccccc1)(c1ccccc1)c1ccccc1 = Met
• O=C(Nc1ccc(I)cc1)Nc1nc2ccc([N+](=O)[O-])cc2s1 = Not met
• Nc1nc(-c2ccccc2)cc(-c2cc3ccccc3nc2Cl)n1 = Not met
• CC(C)C1=C[C@@]23CC[C@@H]4[C@](C)(CCC[C@]4(C)C(=O)NCc4ccccc4)[C@H]2C[C@@H]1[C@H]1C(=O)CCC(=O)[C@H]13 = Met
• O=C1NC(=NC2CCCCCC2)N/C1=C\c1ccc2ncoc2c1 = Not met
• CC(=O)Oc1ccccc1C(=O)Oc1ccc(C(=O)/C=C/c2ccncc2)cc1 = Not met
• CCCCSc1nc(Nc2ccc(/C(C)=N/NC(N)=S)cc2)c(C#N)c(-c2ccc(OC)cc2)n1 = Met
• CN1C(=O)N(C)C2SC(N/N=C/c3cccs3)=NC21 (stereo not given) = Not met
• O=C(Nc1cccc(C(F)(F)F)c1)c1cncc(C#Cc2cnc3cccnn23)c1 = Not met
